Hey, just so you know, these numbers are from PubChem BioAssay AID1996.

# condition: buffer; pH 7.4; 200.0 µM
observable: solubility kinetic

Example cases with answers are listed next.
CNc1cc(=O)n(C)c(=O)n1-c1ccccc1: > 34.7 µg/mL
O=[N+]([O-])c1cccc(-c2noc(-c3cccs3)n2)c1: < 0.2 µg/mL
COc1ccccc1C(=O)Nc1ccc2c(c1)n(C)c(=O)n2C: 43.6 µg/mL
Cn1cccc1C(=O)NCc1ccc(S(N)(=O)=O)cc1: > 44 µg/mL
O=C(Nc1nc2ccccc2[nH]1)c1cccc(Cl)c1: < 0.2 µg/mL

Could you tell me solubility kinetic for each of these molecules? They are listed below.
1. CNC(=O)C(=O)Nc1c(O)c2ccccc2[nH]c1=O
2. COc1ccccc1C(c1c(N)n(C)c(=O)n(C)c1=O)C(C)[N+](=O)[O-] (configuration not stated)
3. O=S(=O)(Nc1ccon1)c1ccc(Br)s1
4. CN(c1ccccc1)S(=O)(=O)c1ccc2[nH]c(=O)oc2c1
5. COCCCN1CN=C(Nc2nc3ccccc3o2)NC1

["> 39.2 µg/mL", "> 52.3 µg/mL", "31.3 µg/mL", "> 45.6 µg/mL", "> 43.4 µg/mL"]

Could you report solubility kinetic for every entry in the following list?
1. CC1CCN(CCNC(=S)Nc2ccc(Cl)cc2)CC1
2. N#Cc1ccc(Cl)cc1NC(=O)CSc1cccc[n+]1[O-]

["> 46.8 µg/mL", "> 48 µg/mL"]
